Target: hCCR2b (Homo sapiens, UniProt P41597)
Sequence (P41597 1-360 isoform P41597-2): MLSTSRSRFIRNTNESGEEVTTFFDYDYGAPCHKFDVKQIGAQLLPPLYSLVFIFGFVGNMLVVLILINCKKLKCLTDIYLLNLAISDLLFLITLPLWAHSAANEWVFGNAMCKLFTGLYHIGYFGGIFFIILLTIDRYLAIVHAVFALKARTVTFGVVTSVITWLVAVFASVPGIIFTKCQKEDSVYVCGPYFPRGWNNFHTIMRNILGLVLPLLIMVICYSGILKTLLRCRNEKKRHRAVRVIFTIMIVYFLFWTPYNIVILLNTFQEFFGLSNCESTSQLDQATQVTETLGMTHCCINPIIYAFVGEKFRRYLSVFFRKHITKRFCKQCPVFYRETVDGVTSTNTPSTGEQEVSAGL
attribute_measured: IC50 (nM)

Worked cases, IC50 given:
compound_string: COc1cccc2occ(COc3cccc4[nH]c(C(=O)N[C@H]5CC[C@](O)(CCN6CC[C@H](O)[C@@H](C)C6)CC5)cc34)c12
target_desc: hCCR2b (Homo sapiens, UniProt P41597)
unit_label: nM
IC50: 1.5

compound_string: C[C@H]1CN(CC[C@]2(O)CC[C@@H](NC(=O)c3cc4c(OCc5coc6cc(F)cc(F)c56)cccc4[nH]3)CC2)CC[C@@H]1O
target_desc: hCCR2b (Homo sapiens, UniProt P41597)
unit_label: nM
IC50: 2.3

compound_string: C[C@H]1CN(CC[C@]2(O)CC[C@@H](NC(=O)c3cc4c(OC[C@@H]5COc6ccccc65)cccc4[nH]3)CC2)CC[C@@H]1O
target_desc: hCCR2b (Homo sapiens, UniProt P41597)
unit_label: nM
IC50: 10.8

compound_string: CC(C)OCCOc1ccc2c(COc3cccc4[nH]c(C(=O)N[C@H]5CC[C@](O)(CCN6CC[C@H](O)[C@@H](C)C6)CC5)cc34)coc2c1
target_desc: hCCR2b (Homo sapiens, UniProt P41597)
unit_label: nM
IC50: 0.2

I. COc1cccc2c(COc3cccc4[nH]c(C(=O)N[C@H]5CC[C@](O)(CCN6CC[C@H](O)[C@@H](C)C6)CC5)cc34)coc12
II. C[C@H]1CN(CC[C@]2(O)CC[C@@H](NC(=O)c3cc4c(OCc5coc6cc(OCC7CC7)ccc56)cccc4[nH]3)CC2)CC[C@@H]1O
Of the pair I and II , name the member with the lesser recorded IC50. Answer = label.
II
(II: 0.4 nM, I: 12.5 nM)

* * *

pIC50: −log10 of the molar value.
// pIC50 collected for Human CCR5 (Homo sapiens)
attribute_measured: pIC50

compound: C[C@H]1CN(CC[C@]2(O)CC[C@@H](NC(=O)c3cc4c(OCc5coc6c5C(=O)CC(C)(C)C6)cccc4[nH]3)CC2)CC[C@@H]1O [Example 7]
pIC50: 7.92
--
compound: COc1cccc2c(COc3cccc4[nH]c(C(=O)N[C@H]5CC[C@](O)(CCN6CC[C@H](O)[C@@H](C)C6)CC5)cc34)coc12 [Example 23]
pIC50: 7.92

* * *

Target: hCCR2b (Homo sapiens)
pIC50: −log10 of the molar value.
attribute_measured: pIC50

P. COCCCOc1ccc2c(COc3cccc4[nH]c(C(=O)N[C@H]5CC[C@](O)(CCN6CC[C@H](O)[C@@H](C)C6)CC5)cc34)coc2c1
Q. C[C@H]1CN(CC[C@]2(O)CC[C@@H](NC(=O)c3cc4c(OCc5coc6c5C(=O)CC(C)(C)C6)cccc4[nH]3)CC2)CC[C@@H]1O
R. C[C@H]1CN(CC[C@]2(O)CC[C@@H](NC(=O)c3cc4c(OCc5coc6ccc(Cl)cc56)cccc4[nH]3)CC2)CC[C@@H]1O
Which order do these items fall in when sorted by pIC50 from largest to smallest? When ranking, write the labels in the order the request describes.
R, P, Q
